Target: T1, PUF4 RNA-binding domain (Saccharomyces cerevisiae, UniProt P25339 537-888)
T1 sequence: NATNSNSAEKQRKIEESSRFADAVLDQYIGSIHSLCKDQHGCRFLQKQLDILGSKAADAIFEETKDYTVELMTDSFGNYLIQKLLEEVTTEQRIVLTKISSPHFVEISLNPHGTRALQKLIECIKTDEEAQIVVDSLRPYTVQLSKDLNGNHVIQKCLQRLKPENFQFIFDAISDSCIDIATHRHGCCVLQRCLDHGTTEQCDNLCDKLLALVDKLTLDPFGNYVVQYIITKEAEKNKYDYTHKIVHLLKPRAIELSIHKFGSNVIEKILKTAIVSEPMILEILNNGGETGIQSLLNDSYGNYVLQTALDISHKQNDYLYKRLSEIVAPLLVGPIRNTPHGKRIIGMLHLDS
Assay: Mg; RNA-MaP; 20 mM Na-HEPES pH 7.4, 30 mM KOAc, 0.75 mM MgCl2, 0.1% Tween-20, 5% glycerol, 0.1 mg/mL BSA, 2 mM DTT; 25 C; 0.0125-409.6 nM protein
Details: tags: N-His6-TEV cleaved; C-SNAP kept, Cy3B-labelled; label: tethered on chip by stalled RNA polymerase
pKd: −log10 of the molar value.
Test readout: pKd

Binder: UCUCUUUCACACUUAUUAUAUCUCUU (ssRNA) [Id_ii_S1_P5E.4_K5.3_C5.2_[C-2T]_[T-1C]_H5.3_A5.1_F5.1_T5.2]
Test readout: pKd
Qualifier symbol: <
Numeric value: 5.64
--
Binder: UCUCUUUGUAUGUCCCUCUCUU (ssRNA) [Ic_S1_P5E.1_K5.1_C5.1_H5.1_A5.1_[T6G]_[A7T]_F5.1_[T8C]_[T9C]_[A10C]_T5.1]
Test readout: pKd
Qualifier symbol: =
Numeric value: 6.90
--
Binder: UCUCUUUGUAUCCAGUUCUCUU (ssRNA) [Ic_S1_P5E.1_K5.1_C5.1_H5.1_A5.1_[T6C]_[A7C]_F5.1_[T8A]_[T9G]_[A10T]_T5.1]
Test readout: pKd
Qualifier symbol: =
Numeric value: 5.98
--
Binder: Ic_S2_P4E.1_K4.1_C4.1_H4.1_A4.1_[T5G]_[A6C]_[T7C]_F4.1_[T8G]_[A9C]_T4.1 (ssRNA) RNA: UUUGAUUAAUAUGAUAUCGUUCUUUCUUGUAGCCGCUUCUUUCUCGAUAUCAUAUUAAUCUUU
Test readout: pKd
Qualifier symbol: <
Numeric value: 5.64
--
Binder: UCUCUUGUACACUAUAAUUCUCUU (ssRNA) [Id_ii_S1_P3E.4_K3.3_C3.2_[C-2G]_H3.3_A3.1_F3.1_T3.2_[T9A]_[A10T]]
Test readout: pKd
Qualifier symbol: =
Numeric value: 8.94
--
Binder: UCUCUUGCUAUAUAUUAUGUCUCUU (ssRNA) [Id_ii_S1_P4E.3_K4.2_C4.2_[C-2G]_[T-1C]_H4.2_A4.1_F4.1_T4.2_[G10T]_[T11G]]
Test readout: pKd
Qualifier symbol: =
Numeric value: 7.38
--
Binder: Id_i_S4_P3E.6_K3.2_C3.3_[T-3C]_[C-2A]_[T-1C]_H3.2_A3.1_F3.1_T3.2 (ssRNA) RNA: UUUGACAACUGAUCGUUCUUUCUCACUAUAUAUAUAUUCUUUCUCGAUCAGUUGUCUUU
Test readout: pKd
Qualifier symbol: =
Numeric value: 7.25
--
Binder: ACAAACUAUACACUAUAUAACAAAC (ssRNA) [Id_iii_S3_P3E.7_K3.3_C3.3_[C-2A]_H3.3_A3.1_F3.1_T3.2]
Test readout: pKd
Qualifier symbol: =
Numeric value: 7.49
--
Binder: UCUCUUUGUACGUAUCUCUU (ssRNA) [Ic_S1_P3E.1_K3.1_C3.1_H3.1_A3.1_[T5C]_[A6G]_F3.1_T3.1]
Test readout: pKd
Qualifier symbol: =
Numeric value: 6.83
--
Binder: Id_ii_S4_P5E.3_K5.2_C5.2_[T-1A]_H5.2_A5.1_F5.1_T5.2_[T11A]_[A12C] (ssRNA) RNA: UUUGACAACUGAUCGUUCUUUCUCAUAUAUUAUUAACUUCUUUCUCGAUCAGUUGUCUUU
Test readout: pKd
Qualifier symbol: =
Numeric value: 6.84
--
Binder: Ie_S4_P5E.1_K5.1_C5.1_H5.1_A5.1_F5.1_[+8TTC]_T5.1 (ssRNA) RNA: UUUGACAACUGAUCGUUCUUUCUUGUAUUAUUUCUAUUCUUUCUCGAUCAGUUGUCUUU
Test readout: pKd
Qualifier symbol: =
Numeric value: 7.91
